SUBJECT OF TEST: recombinant human IL-5 protein (human) (UniProt P05113)
METHOD: SPR, human IL-5 immobilized on CM5 chip, chimeric antibody as analyte, 1:1 global fit
// Kd lookup, one value per entry
Provide only the numeric value, understood in nM.

INSERT INTO assay_data (binder, value_kind, readout_value) VALUES
  ('154F10G8 mouse-human chimeric antibody (antibody, human IgG4, V domains shown) VH: QVQLQQPGAELVKPGASVKLSCKASGYTFTSYWITWVKQRPGQGLEWIGDIYPGSGSTFYNEKFKSEATLTVDTSSSTAYMQLSSLTSEDSAVFYCSTETTLGYWGQGTTLTVSS VL: DVLMTQTPLSLPVSLGDQASISCRSSQSIVHNNGNTYLEWYLQKPGQSPKLLIYKVSNRFSGVPDRFSGSGSGTDFTLKISRVEAEDLGVYYCFQGSHVPFTFGSGTKLEIK', 'Kd', 0.188);

Continue with the binder presented below.
### Prompt Supply measured Kd of 102A2E11B6 mouse-human chimeric antibody (antibody, human IgG4, V domains shown) VH: QVQLRQSGPGLVQPSQSLSITCTVSGFSLTSYGVHWVRQSPGKGLEWLGVIWSGGSTDYNAVFMSRLSISKDSSKSQVFFKMNSLQTDDTAIYYCARNRYVLDYWGQGTSVTVSS VL: DIVMTQSPSSLSVSAGERVTMRCKSSQSLLTSGDQKNHLAWYQQKPGQPPKLLIYGASTRESGVPDRFTGSGSGTDFTLTITSVQAEDLAVYYCQNDHSFPLTFGAGTKLELK in your reply.
### Response 0.221

Origin of measurements: patent US20220010008A1
